Provide the recorded GLP-1R pEC 50 for the entries that follow.
# testedTarget: human GLP-1 receptor (GLP-1R) (human, UniProt P43220 24-463)
# Sequence (P43220 24-463): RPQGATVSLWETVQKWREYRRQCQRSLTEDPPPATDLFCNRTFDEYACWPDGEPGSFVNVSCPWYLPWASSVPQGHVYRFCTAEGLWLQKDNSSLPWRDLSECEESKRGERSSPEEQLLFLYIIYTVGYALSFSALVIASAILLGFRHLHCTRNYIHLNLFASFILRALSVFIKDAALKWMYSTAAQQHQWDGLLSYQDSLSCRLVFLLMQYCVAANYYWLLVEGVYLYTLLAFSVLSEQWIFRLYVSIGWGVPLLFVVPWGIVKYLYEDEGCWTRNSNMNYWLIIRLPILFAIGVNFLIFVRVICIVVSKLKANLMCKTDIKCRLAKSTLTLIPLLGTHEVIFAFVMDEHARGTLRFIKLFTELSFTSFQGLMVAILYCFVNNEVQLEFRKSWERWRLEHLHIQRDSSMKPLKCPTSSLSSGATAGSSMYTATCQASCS
# assayProtocol: cell-based or functional assay
Where no end group is shown, it is not given here. [ ]: non-standard residue; d: D form. Formula III = not defined here; Formula II = not defined here; Aib = CC(C)(N)C(=O)O

Return reported GLP-1R pEC 50. Input binder: WSQGTFTSDYSKYLD[Aib]KRAQEFV[Aib]WLEDEPSSK(Formula II)APPPS-OH (reading uncertain) [Compound B17] < 6 pEC50

Return reported GLP-1R pEC 50. Input binder: YSHGTFTSDYSKYLDK(Formula II)KYAQEFV[Aib]WLEDEPSSGAPPPS-OH (reading uncertain) [Compound B3] < 6 pEC50

Return reported GLP-1R pEC 50. Input binder: YSHGTFTSDYSKYLD[Aib]KSAQEFVKWLEDEPSSGAPPPS-OH (not fully specified (residue 24); printed as YSHGTFTSDYSKYLD(Aib)KSAQEFVK****WLEDEPSSGAPPPS-OH; also: structure of Formula II substituent not given here) [Compound B10] < 6 pEC50

Return reported GLP-1R pEC 50. Input binder: YSHGTFTSDYSKYLDK(Formula II)KRAQEFVIWLEDEPSSGAPPPS (reading uncertain) [Compound B26] < 6 pEC50

Return reported GLP-1R pEC 50. Input binder: YSHGTFTSDYSKYLD[Aib]KRAQEFVIWLEDEPSSK(Formula III)APPPS-OH (reading uncertain) [Compound B29] 7 pEC50

Return reported GLP-1R pEC 50. Input binder: YSHGTFTSDYSKYLD[Aib]KYAQEFVK(Formula II)WLEDEPSSGAPPPS-OH (reading uncertain) [Compound B2] < 6 pEC50

Return reported GLP-1R pEC 50. Input binder: WSQGTFTSDYSKYLDK(Formula II)KRAQEFV[Aib]WLEDEPSSGAPPPS-OH (reading uncertain) [Compound B19] 6.3 pEC50

Return reported GLP-1R pEC 50. Input binder: YSQGTFTSDK(Formula II)SKYLDAARAQEFVKWLEDEPKSKSPPPS-NH2 (reading uncertain) [Compound B36] 8.1 pEC50

Return reported GLP-1R pEC 50. Input binder: YSHGTFTSDYSKYLD[Aib]KYAQEFV[Aib]WLEDEPSSK(Formula III)APPPS-OH (reading uncertain) [Compound B5] < 6 pEC50

Return reported GLP-1R pEC 50. Input binder: WSQGTFTSDYSKYLD[Aib]KRAQEFVK(Formula II)WLEDEPSSGAPPPS-OH (reading uncertain) [Compound B18] < 6 pEC50

Return reported GLP-1R pEC 50. Input binder: YSQGTFTSDYSKYLDAARAQEFVK(Formula III)WLEDEPKSKSPPPS-NH2 (reading uncertain) [Compound B38] 6 pEC50

Return reported GLP-1R pEC 50. Input binder: YSHGTFTSDYSKYLDK(Formula III)KSAQEFV[Aib]WLEDEPSSGAPPPS-OH (reading uncertain) [Compound B15] < 6 pEC50

Return reported GLP-1R pEC 50. Input binder: YSHGTFTSDYSKYLDK(Formula III)ARAQEFVKWLEDEPSSGAPPPS-NH2 (reading uncertain) [Compound B47] < 6 pEC50

Return reported GLP-1R pEC 50. Input binder: YSHGTFTSDYSKYLD[Aib]KYAQEFVK(Formula III)WLEDEPSSGAPPPS-OH (reading uncertain) [Compound B6] < 6 pEC50

Return reported GLP-1R pEC 50. Input binder: YSQGTFTSDYSKYLDK(Formula III)ARAQEFVKWLEDEPKSKSPPPS-NH2 (reading uncertain) [Compound B39] 6 pEC50
